I'd be grateful if you could share measured △Tm for these entries.
target: MARV NP (Lake Victoria marburgvirus, UniProt P27588); type: binding, Marburg virus
Sequence (P27588 19-370 limits assumed): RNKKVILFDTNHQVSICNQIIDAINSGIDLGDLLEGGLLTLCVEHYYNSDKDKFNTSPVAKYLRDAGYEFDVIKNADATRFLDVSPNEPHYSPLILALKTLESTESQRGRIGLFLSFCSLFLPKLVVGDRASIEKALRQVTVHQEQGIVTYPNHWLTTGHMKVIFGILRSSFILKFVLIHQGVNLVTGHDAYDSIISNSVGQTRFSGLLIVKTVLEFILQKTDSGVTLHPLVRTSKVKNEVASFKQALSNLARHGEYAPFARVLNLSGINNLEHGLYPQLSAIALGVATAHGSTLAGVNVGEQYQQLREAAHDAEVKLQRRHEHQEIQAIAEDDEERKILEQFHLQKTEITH
Numbers only, in °C.

# count of solved cases: 2
>>> quantitative_readout("CC1(C)[C@@H](O[C@H]2O[C@H](C(=O)O)[C@@H](O)[C@H](O)[C@H]2O[C@@H]2O[C@H](C(=O)O)[C@@H](O)[C@H](O)[C@H]2O)CC[C@]2(C)[C@H]3C(=O)C=C4[C@@H]5C[C@@](C)(C(=O)O)CC[C@]5(C)CC[C@@]4(C)[C@]3(C)CC[C@@H]12")
"−0.2"
>>> quantitative_readout("COc1ccc(-c2coc3cc(O[C@@H]4O[C@H](CO)[C@@H](O)[C@H](O)[C@H]4O)ccc3c2=O)cc1")
0.0

Please find the next compound below.
stdin: Sample O=C1C[C@@H](c2ccc(O)cc2)Oc2cc(O[C@@H]3O[C@H](CO)[C@@H](O)[C@H](O)[C@H]3O)ccc21 — what was its △Tm?
stdout: 0.2
